Kindly supply the reported LogEC50, rMOR, [35S]GTP-γ-S binding values for the records listed here.
target: rat μ opioid receptors (rMOR) (Rattus norvegicus, UniProt P33535); construct: expressed in transfected cells; host or cells: HN9.10 neuroblastoma cell line, pCDNA3, neomycin-selected clones; assay: biochemical; type: biochemical
Sequence (P33535 whole entry): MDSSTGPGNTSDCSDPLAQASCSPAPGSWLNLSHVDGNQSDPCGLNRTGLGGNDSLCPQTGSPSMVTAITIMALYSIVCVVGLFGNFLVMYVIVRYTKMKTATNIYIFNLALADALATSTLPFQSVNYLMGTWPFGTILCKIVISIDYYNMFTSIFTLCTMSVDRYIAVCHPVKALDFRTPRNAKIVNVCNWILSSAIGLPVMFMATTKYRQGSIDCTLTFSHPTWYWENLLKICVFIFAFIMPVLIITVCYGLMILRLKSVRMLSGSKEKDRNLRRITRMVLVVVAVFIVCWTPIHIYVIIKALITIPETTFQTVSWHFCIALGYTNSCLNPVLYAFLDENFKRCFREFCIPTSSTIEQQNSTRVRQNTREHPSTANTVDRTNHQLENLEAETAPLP
One number for each entry.

CC(C)C[C@H](NC(=O)[C@@H]1CCCN1C(=O)[C@H](CC(C)C)NC(=O)[C@H](Cc1ccccc1)NC(=O)CNC(=O)[C@@H](C)NC(=O)[C@@H](N)Cc1ccc(O)cc1)C(=O)N[C@@H](Cc1c[nH]c2ccccc12)C(=O)OCc1cc(C(F)(F)F)cc(C(F)(F)F)c1 [TY004]	−7.48

State the recorded LogEC50, rMOR, [35S]GTP-γ-S binding for every item in the following list.
1. CC(C)C[C@H](NC(=O)[C@@H]1CCCN1C(=O)[C@H](Cc1ccccc1)NC(=O)[C@H](Cc1ccccc1)NC(=O)CNC(=O)[C@@H](C)NC(=O)[C@@H](N)Cc1ccc(O)cc1)C(=O)N[C@@H](Cc1c[nH]c2ccccc12)C(=O)OCc1cc(C(F)(F)F)cc(C(F)(F)F)c1 [TY003]
2. CC(C)C[C@H](NC(=O)[C@@H]1CCCN1C(=O)[C@@H](Cc1ccccc1)NC(=O)[C@H](Cc1ccccc1)NC(=O)CNC(=O)[C@@H](C)NC(=O)[C@@H](N)Cc1ccc(O)cc1)C(=O)N[C@@H](Cc1c[nH]c2ccccc12)C(=O)OCc1cc(C(F)(F)F)cc(C(F)(F)F)c1 [TY007]

[out]
−7.23
−6.46
